Test system: HIV
method_notes: MT4 assay: antiviral HIV activity (cell protection, cell titer glo readout at 96 hours)
Assay type: cell-based
applied_conditions: Human immunodeficiency virus 1, MT4, 96 h, MT4 cells, cell titer glo readout at 96 hours, 10 point dose response; read-out: HIV MT4 Assay IC50
recorded_endpoint: pIC50
Please note pIC50 is a logarithmic value: minus log10 of concentration in mol/L. Answer with that number alone.

Dear colleague, I am looking for the recorded pIC50 of the following molecule: `Cc1nc2c(cc(-c3cnc(-c4ccc5c(cnn5C)c4)s3)n2C)c(-c2cc(F)c3c(c2C)CCCO3)c1[C@H](OC(C)(C)C)C(=O)O`
7.90

Dear colleague, I am looking for the recorded pIC50 of the following molecule: `Cc1nc2c(cc(C(=O)NC(C)C)n2C)c(-c2cc(F)c3c(c2C)CCCO3)c1[C@H](OC(C)(C)C)C(=O)O`
7.60

Dear colleague, I am looking for the recorded pIC50 of the following molecule: `Cc1nc2c(cc(-c3nc(N4CCN(C(=O)C5CCOCC5)CC4)ns3)n2C)c(-c2cc(F)c3c(c2C)CCCO3)c1[C@H](OC(C)(C)C)C(=O)O`
7.85

Dear colleague, I am looking for the recorded pIC50 of the following molecule: `Cc1nc2c(cc(C(=O)N3CCN(C4CCOCC4)C[C@H]3C)n2C)c(-c2cc(F)c3c(c2C)CCCO3)c1[C@H](OC(C)(C)C)C(=O)O`
6.92

Dear colleague, I am looking for the recorded pIC50 of the following molecule: `Cc1nc2c(cc(-c3ccn(C4CN(C(=O)OC(C)(C)C)C4)n3)n2C)c(-c2cc(F)c3c(c2C)CCCO3)c1[C@H](OC(C)(C)C)C(=O)O`
7.49

Dear colleague, I am looking for the recorded pIC50 of the following molecule: `Cc1ccc(N2CCN(C(=O)c3cc4c(-c5cc(F)c6c(c5C)CCCO6)c([C@H](OC(C)(C)C)C(=O)O)c(C)nc4n3C)CC2)cc1`
7.38

Dear colleague, I am looking for the recorded pIC50 of the following molecule: Cc1nc2c(cc(-c3ccnc(N4CCN5CCCC5C4)c3)n2C)c(-c2cc(F)c3c(c2C)CCCO3)c1[C@H](OC(C)(C)C)C(=O)O (stereo partly drawn)
7.40

Dear colleague, I am looking for the recorded pIC50 of the following molecule: `Cc1nc2c(cc(-c3nnc(NCC4CCOCC4)o3)n2C)c(-c2cc(F)c3c(c2C)CCCO3)c1[C@H](OC(C)(C)C)C(=O)O`
7.39

Dear colleague, I am looking for the recorded pIC50 of the following molecule: `Cc1nc2c(cc(C(=O)N3CCC(N4CCCCC4)CC3)n2C)c(-c2cc(F)c3c(c2C)CCCO3)c1[C@H](OC(C)(C)C)C(=O)O`
6.96

Dear colleague, I am looking for the recorded pIC50 of the following molecule: `Cc1nc2c(cc(-c3nnc(N(C)CCN4CCOCC4)o3)n2C)c(-c2cc(F)c3c(c2C)CCCO3)c1[C@H](OC(C)(C)C)C(=O)O`
7.97

Dear colleague, I am looking for the recorded pIC50 of the following molecule: `Cc1nc2c(cc(-c3nnc(N4CC[C@H](N(C)C)C4)o3)n2C)c(-c2cc(F)c3c(c2C)CCCO3)c1[C@H](OC(C)(C)C)C(=O)O`
7.62

Dear colleague, I am looking for the recorded pIC50 of the following molecule: Cc1nc2c(cc(-c3ccnc(C(=O)NCCN4CCCC4=O)c3)n2C)c(-c2cc(F)c3c(c2C)CCCO3)c1[C@H](OC(C)(C)C)C(=O)O (atropisomer, axis not shown)
6.66

These entries and their values trace back to patent US20150191469A1.
